Could you please report measured Enzyme Activity Endpoint Assay: Fc for the items listed next?
# tested system: pooled human IgG (human IgG1,2,3 and 4)
Answers are plain numbers, in ng/µL.

PRT-300 (protein) MVTSVWTKGVTPPTDFIKGEDVFHAPYKAGQGWYDITKTFNGKDDLLCGAATAGNMLHWWFDQNKEYIEAYLKKHPEKQKIMFGDQELLDVRKAINTKGSQKNSELFNYFRDKAFPNLSARRLGVMPDLVLDMFINGYYLNVTKTQTTDVNRTYQEKDKRGGIFDAVFTRGDQSKLLTSRHDFKEKGLKEISDLIKQELTEGKALGLSHTYANVRLNHVINLWGADFDSDGNLKAIYVTDSDSNASIGMKKYFVGVNSSGKVAISAKEIKEDNIGAQVLGLFTLSTGQDIWNQTN; 274
PRT-179 (protein) MANQEIRYSEVTPYHVTSVWTKGVTPPANFTQGEDVFHAPYVANQGWYDITKTFNGKDDLLCGAATAGNMLHWWFDQNKDQIKRYLEEHPEKQKINFNGEQMFDVKEAIDTKNHQLDSKLFEYFKEKAFPYLSARQLGVFPDHVIDMFINGYRLSLTNHGPTPVKEGSKDPRGGIFDAVFTRGDQSKLLTSRHDFKEKNLKEISDLIKKELTEGKALGLSHTYANVRINHVINLWGADFDSNGNLKAIYVTDSDSNASIGMKKYFVGVNSAGKVAISAKEIKEDNIGAQVLGLFTLSTGQDSWNQTN; 187

I would be grateful if you could provide Enzyme Activity Endpoint Assay: Fc for each of the following entries.
1. PRT-682 (protein) MQITSVWTKGVTPLTPEQFRNNNEDVIHAPYLANQGWYDITKTFNGKDNLLCGAATAGNMLHWWFDQNKTEIEAYLKKHPEKQKIIFNNQELFDLKKAIDTKDSQTNSQLFNYFRDKAFPNLSARQLGVMPDLVLDMFINGYYLNVFKTQSTDVNRPYQDKDKRGGIFDAVFTRGDQTTLLTSRHDLKNKGLNEISDIIKQELTEGKALALSHTYANVSISHVINLWGADFNAEGNLEAIYVTDSDANASIGMKKYFVGVNAHGKVAISAKKIEGENIGAQVLGLFTLSSGKDIWQKLSLEHHHHHH
2. PRT-169 (protein) MANQEIRYSEVTPYHVTSVWTKGVTPPTDFTQGEDVFHAPYKANQGWYDITKTFNGKDDLLCGAATAGNMLHWWFDQNKDQIKRYLEEHPEKQKINFNGEQMFDVKEAIDTKNDQLDSKLFEYFKEKAFPYLSTKHLGVFPDHVIDMFINGYRLSLTNHGPTPVKEGSKDPRGGIFDAVFTRGDQSKLLTSRHDFKEKNLKEISDLIKKELTEGKALGLSHTYANVRINHVINLWGADFDSNGNLKAIYVTDSDSNASIGMKKYFVGVNSAGKVAISAKEIKEDNIGAQVLGLFTLSTGQDSWNQTN

0
188

Hey, just so you know, these numbers are from patent US20250027068.
